Biological target: β-galactosidase (Escherichia coli)
Sequence (P00722 2-1024): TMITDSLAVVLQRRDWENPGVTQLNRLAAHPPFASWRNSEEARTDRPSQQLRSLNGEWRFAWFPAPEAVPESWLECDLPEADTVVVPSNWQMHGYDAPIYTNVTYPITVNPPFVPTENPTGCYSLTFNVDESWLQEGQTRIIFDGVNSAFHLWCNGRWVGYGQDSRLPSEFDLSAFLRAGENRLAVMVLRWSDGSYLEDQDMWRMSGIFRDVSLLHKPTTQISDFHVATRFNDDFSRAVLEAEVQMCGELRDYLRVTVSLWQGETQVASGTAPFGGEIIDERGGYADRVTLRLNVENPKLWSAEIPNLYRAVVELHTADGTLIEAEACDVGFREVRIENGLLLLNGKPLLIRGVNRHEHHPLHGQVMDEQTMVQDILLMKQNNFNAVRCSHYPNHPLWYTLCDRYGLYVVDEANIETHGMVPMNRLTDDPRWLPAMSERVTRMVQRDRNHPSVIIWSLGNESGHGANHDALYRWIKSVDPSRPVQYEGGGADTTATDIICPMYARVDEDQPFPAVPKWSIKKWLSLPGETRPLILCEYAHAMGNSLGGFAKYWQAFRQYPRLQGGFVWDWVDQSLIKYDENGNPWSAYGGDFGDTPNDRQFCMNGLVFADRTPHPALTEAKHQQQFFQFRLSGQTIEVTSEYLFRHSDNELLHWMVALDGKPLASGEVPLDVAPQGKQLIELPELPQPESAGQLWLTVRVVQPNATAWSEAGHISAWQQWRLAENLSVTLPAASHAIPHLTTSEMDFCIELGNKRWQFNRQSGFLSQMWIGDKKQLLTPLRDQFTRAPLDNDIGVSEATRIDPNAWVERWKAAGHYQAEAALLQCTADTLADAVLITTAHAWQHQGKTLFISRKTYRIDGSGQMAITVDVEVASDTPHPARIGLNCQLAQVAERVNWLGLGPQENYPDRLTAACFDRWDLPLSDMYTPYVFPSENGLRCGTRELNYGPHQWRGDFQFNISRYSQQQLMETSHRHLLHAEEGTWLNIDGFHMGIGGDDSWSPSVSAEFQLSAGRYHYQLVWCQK
Assay: p-nitrophenyl galactopyranoside hydrolysis, absorbance at […] nm
Format: biochemical
measured-property: pKi
Remember, pKi is on a log scale: it is -log10 of the molar concentration.

Challenge: Request the reported pKi associated with O=C(O)[C@H]1[C@@H]2CN[C@H](CO)[C@@H](O)[C@@H]21 [8a]
Response given: 2.93
